// provenance: ChEMBL document CHEMBL3588817

target: DNA gyrase (Escherichia coli, UniProt P0AES4+P0AES6); test: Binding affinity to Escherichia coli DNA gyrase subunit B N-terminal 24 kDa domain by SPR assay
pKd: −log10 of the molar value.

SMILES STRING: O=C(O)CC(=O)Nc1nc2c(s1)C[C@@H](NC(=O)c1cc(Cl)c(Cl)[nH]1)CC2
TARGET: DNA gyrase (Escherichia coli, UniProt P0AES4+P0AES6)
pKd: 7.31
//
SMILES STRING: Nc1nc2c(s1)C[C@@H](NC(=O)c1cc(Br)c(Br)[nH]1)CC2
TARGET: DNA gyrase (Escherichia coli, UniProt P0AES4+P0AES6)
pKd: 5.52
//
SMILES STRING: O=C(O)CC(=O)Nc1nc2c(s1)C[C@@H](NC(=O)c1cc(Br)c(Br)[nH]1)CC2
TARGET: DNA gyrase (Escherichia coli, UniProt P0AES4+P0AES6)
pKd: 7.38
//
SMILES STRING: COC(=O)CC(=O)Nc1nc2c(s1)C[C@@H](NC(=O)c1cc(Cl)c(Cl)[nH]1)CC2
TARGET: DNA gyrase (Escherichia coli, UniProt P0AES4+P0AES6)
pKd: 7.30
//
SMILES STRING: COC(=O)CC(=O)Nc1nc2c(s1)C[C@@H](NC(=O)c1cc(Br)c(Br)[nH]1)CC2
TARGET: DNA gyrase (Escherichia coli, UniProt P0AES4+P0AES6)
pKd: 7.14
//
SMILES STRING: COC(=O)CCC(=O)Nc1nc2c(s1)C[C@@H](NC(=O)c1cc(Br)c(Br)[nH]1)CC2
TARGET: DNA gyrase (Escherichia coli, UniProt P0AES4+P0AES6)
pKd: 6.82
//
SMILES STRING: O=C(O)CCC(=O)Nc1nc2c(s1)C[C@@H](NC(=O)c1cc(Br)c(Br)[nH]1)CC2
TARGET: DNA gyrase (Escherichia coli, UniProt P0AES4+P0AES6)
pKd: 8.00
